Hey, just so you know, these numbers are from ChEMBL document CHEMBL1153991.

SUBJECT_OF_TEST: Prothrombin (Homo sapiens, UniProt P00734)
pIC50: −log10 of the molar value.
ENDPOINT_LABEL: pIC50

Input line: // map N=C(N)c1ccc(C(=O)Nc2ccccc2C(=O)Nc2ccc(Cl)cn2)cc1 to recorded pIC50 (system: Prothrombin (Homo sapiens, UniProt P00734))
Output line: < 5.00

---

Measured bioavailability by item
PROTOCOL_TEXT: Oral bioavailability in rat
Assay type: ADME, organism-based
EXPERIMENTAL_SETUP: in vivo

Below: 2 compounds and their reported bioavailability.
| INPUT_SMILES | RESULT |
| --- | --- |
| N=C1NCCN1Cc1ccc(C(=O)Nc2ccc(Cl)cc2C(=O)Nc2ccc(Cl)cn2)cc1 | < 1% |
| N=C(N)c1ccc(C(=O)Nc2ccccc2C(=O)Nc2ccc(Cl)cn2)cc1 | < 5% |

Let us move to another entry and its bioavailability.
Input line: Look up bioavailability: NS(=O)(=O)c1ccccc1-c1ccc(C(=O)Nc2ccccc2C(=O)Nc2ccc(Cl)cn2)cc1
Output line: 35%
